target: 5-hydroxytryptamine receptor 2A (Homo sapiens, UniProt P28223); test: Displacement of [3H]Ketanserin from human recombinant 5-HT2A receptor expressed in CHO-K1 cells after 15 mins
Sequence (P28223 whole entry): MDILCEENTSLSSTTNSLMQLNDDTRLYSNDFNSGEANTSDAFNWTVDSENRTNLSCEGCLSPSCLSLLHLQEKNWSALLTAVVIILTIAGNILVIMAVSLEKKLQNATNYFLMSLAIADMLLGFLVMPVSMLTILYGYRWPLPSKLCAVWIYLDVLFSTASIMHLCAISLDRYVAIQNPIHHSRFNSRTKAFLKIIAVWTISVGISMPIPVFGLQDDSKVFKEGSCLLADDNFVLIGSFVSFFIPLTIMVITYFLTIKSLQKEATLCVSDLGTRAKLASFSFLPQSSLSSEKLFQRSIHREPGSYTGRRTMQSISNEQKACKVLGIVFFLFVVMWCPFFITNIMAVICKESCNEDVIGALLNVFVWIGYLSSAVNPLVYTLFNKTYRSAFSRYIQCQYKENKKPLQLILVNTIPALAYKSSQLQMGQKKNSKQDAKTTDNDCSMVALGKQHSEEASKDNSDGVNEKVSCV
pIC50: −log10 of the molar value.
measurement-name: pIC50

Cc1ccc(S(=O)(=O)n2cc(/C=N/N=C/N(C)C)c3c([N+](=O)[O-])cccc32)cc1 :: 6.60
CN(C)/C=N/N=C/c1cn(S(=O)(=O)c2cccc3ccccc23)c2cccc([N+](=O)[O-])c12 :: 6.26
CN(C)/C=N/N=C/c1cn(S(=O)(=O)c2ccc(F)cc2)c2cccc([N+](=O)[O-])c12 :: 6.15
COc1ccc(S(=O)(=O)n2cc(/C=N/N=C/N(C)C)c3c([N+](=O)[O-])cccc32)cc1 :: 6.69
COc1ccc(Cl)cc1S(=O)(=O)n1cc(/C=N/N=C/N(C)C)c2c([N+](=O)[O-])cccc21 :: 5.80

1 = CN(C)/C=N/N=C/c1cn(S(=O)(=O)c2ccc(I)cc2)c2cccc([N+](=O)[O-])c12
2 = CN(C)/C=N/N=C/c1cn(S(=O)(=O)c2ccc3ccccc3c2)c2cccc([N+](=O)[O-])c12
Exercise: In terms of reported pIC50, does 1 or 2 have the smaller number? Answer format: the label of the selected item.
Key: 2
(2: 6.36, 1: 6.61)

* * *

biological target: 5-hydroxytryptamine receptor 2A (Homo sapiens, UniProt P28223); test: Displacement of [3H]Ketanserin from human recombinant 5-HT2A receptor expressed in CHO-K1 cells at 10 uM after 15 mins; assay type: cell-based
measurement-name: inhibition (%)

Cc1ccc(S(=O)(=O)n2cc(/C=N/N=C/N(C)C)c3c([N+](=O)[O-])cccc32)cc1 :: 88.3
CN(C)/C=N/N=C/c1cn(S(=O)(=O)c2ccc(F)cc2)c2cccc([N+](=O)[O-])c12 :: 94.2
CN(C)/C=N/N=C/c1cn(S(=O)(=O)c2ccc(I)cc2)c2cccc([N+](=O)[O-])c12 :: 85.2
COc1ccc(OC)c(S(=O)(=O)n2cc(/C=N/N=C/N(C)C)c3c([N+](=O)[O-])cccc32)c1 :: 84.4
CN(C)/C=N/N=C/c1cn(S(=O)(=O)c2cccc3ccccc23)c2cccc([N+](=O)[O-])c12 :: 94.6
COc1ccc(Cl)cc1S(=O)(=O)n1cc(/C=N/N=C/N(C)C)c2c([N+](=O)[O-])cccc21 :: 75.9
COc1ccc(S(=O)(=O)n2cc(/C=N/N=C/N(C)C)c3c([N+](=O)[O-])cccc32)cc1 :: 90.7
CN(C)/C=N/N=C/c1cn(S(=O)(=O)c2ccc3ccccc3c2)c2cccc([N+](=O)[O-])c12 :: 88
CN(C)/C=N/N=C/c1cn(S(=O)(=O)c2ccccc2)c2cccc([N+](=O)[O-])c12 :: 83.9

* * *

target: UniProt P50406; test: Inhibition of human recombinant 5-HT6 receptor expressed in HEK293 cells assessed as inhibition of 5-HT-induced increase in […] pretreated for 10 mins by cAMP accumulation assay; type: functional, cell-based
Sequence (P50406 whole entry): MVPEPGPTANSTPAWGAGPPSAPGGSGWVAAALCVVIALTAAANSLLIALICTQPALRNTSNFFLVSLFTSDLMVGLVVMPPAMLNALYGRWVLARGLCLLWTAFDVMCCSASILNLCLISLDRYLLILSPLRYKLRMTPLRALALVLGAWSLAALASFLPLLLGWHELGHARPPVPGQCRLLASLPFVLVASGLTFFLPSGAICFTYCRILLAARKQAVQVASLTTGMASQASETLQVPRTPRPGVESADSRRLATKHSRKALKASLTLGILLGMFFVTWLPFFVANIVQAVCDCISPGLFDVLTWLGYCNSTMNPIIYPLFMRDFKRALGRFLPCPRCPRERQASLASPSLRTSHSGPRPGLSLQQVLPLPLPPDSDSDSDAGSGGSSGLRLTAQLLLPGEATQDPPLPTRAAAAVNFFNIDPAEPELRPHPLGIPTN
pIC50: −log10 of the molar value.
measurement-name: pIC50

The following compounds have reported results that may help.
CN1CCN(c2nc3ccc(NS(=O)(=O)c4cccc5ccccc45)cc3s2)CC1 :: 5.41
Cc1ccc(S(=O)(=O)n2cc(/C=N/N=C/N(C)C)c3c([N+](=O)[O-])cccc32)cc1 :: 5.67
CN(C)/C=N/N=C/c1cn(S(=O)(=O)c2ccc(I)cc2)c2cccc([N+](=O)[O-])c12 :: 5.20
CN(C)/C=N/N=C/c1cn(S(=O)(=O)c2ccc(F)cc2)c2cccc([N+](=O)[O-])c12 :: 5.30
CN(C)/C=N/N=C/c1cn(S(=O)(=O)c2ccccc2)c2cccc([N+](=O)[O-])c12 :: 5.74
COc1ccc(OC)c(S(=O)(=O)n2cc(/C=N/N=C/N(C)C)c3c([N+](=O)[O-])cccc32)c1 :: 5.85
COc1ccc(Cl)cc1S(=O)(=O)n1cc(/C=N/N=C/N(C)C)c2c([N+](=O)[O-])cccc21 :: 5.61
CN(C)/C=N/N=C/c1cn(S(=O)(=O)c2ccc3ccccc3c2)c2cccc([N+](=O)[O-])c12 :: 5.60

A = CN(C)/C=N/N=C/c1cn(S(=O)(=O)c2cccc3ccccc23)c2cccc([N+](=O)[O-])c12
B = COc1ccc(S(=O)(=O)n2cc(/C=N/N=C/N(C)C)c3c([N+](=O)[O-])cccc32)cc1
Exercise: Which entry shows the lesser value of pIC50 here, A or B ? Please identify the chosen entry by its label.
Key: A
(A: 5.53, B: 6.13)
